Data credit: paper PMC2844763

- Target entity: E. coli MetAP (Escherichia coli, UniProt P0AE18)
- Sequence (P0AE18 whole entry): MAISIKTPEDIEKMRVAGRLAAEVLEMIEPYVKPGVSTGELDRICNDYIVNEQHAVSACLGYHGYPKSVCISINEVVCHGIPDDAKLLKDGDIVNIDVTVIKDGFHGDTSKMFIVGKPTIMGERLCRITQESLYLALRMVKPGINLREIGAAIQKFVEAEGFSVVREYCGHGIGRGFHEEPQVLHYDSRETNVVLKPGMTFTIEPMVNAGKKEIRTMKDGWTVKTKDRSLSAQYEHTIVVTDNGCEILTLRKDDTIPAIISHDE
- Procedure summary: cell-based MetAP assay
- Particulars: Ca(II) treated cells; result in words
Reported endpoint: inhibition of intracellular Met-AMC hydrolysis (cellular MetAP activity)

Please review the entries below; each comes with its answer.
>  <Smiles text>
O=C(NC1CC1)c1ccc(-c2ccc(O)c(O)c2)s1

>  <Result>
exceptions

$$$$
>  <Smiles text>
Cc1nc(-c2ccc(O)cc2O)cs1

>  <Result>
no inhibition

$$$$
>  <Smiles text>
O=C(Nc1nccs1)C(=O)NC1CCCC1

>  <Result>
no inhibition

$$$$
>  <Smiles text>
Cc1nc(-c2cccc(O)c2)cs1

>  <Result>
no inhibition

$$$$
>  <Smiles text>
O=C(NCc1ccccn1)C(=O)Nc1nccs1

>  <Result>
no inhibition

$$$$

Q) I am curious: what inhibition of intracellular Met-AMC hydrolysis (cellular MetAP activity) value has been reported for O=C(NC1CC1)c1ccsc1-c1ccc(O)c(O)c1 ?
A) exceptions
